These data points were gathered from ChEMBL document CHEMBL1141185.

Species: Rattus norvegicus
assay name: Myorelaxant effect on 80 mM KCl induced rat aorta rings determined; (activity expressed as ED50)
Type: functional
experimental parameters: read-out: ED50 (the source's name)
pEC50: −log10 of the molar value.
result type: pEC50

* CC(=O)NC1CC(C)(C)Oc2ccc(Cl)cc21 (stereo unspecified) | 4.07

====

Organism: Rattus norvegicus
assay name: Percentage of residual insulin secretion value in the pancreatic islets of rat after treatment with the compound at 10 uM concentration
Format: functional
Residual secretion strictly less than 90% = yes. Otherwise no.

• CC1(C)CC(NC(=O)NS(=O)(=O)c2ccccc2)c2cc(Cl)ccc2O1 (stereo not given) = no
• CC(N/C(=N\C#N)Nc1ccncc1)C(C)(C)C (stereo not given) [PINACIDIL ANHYDROUS] = no
• CCNC(=O)NC1CC(C)(C)Oc2ccc(F)cc21 (stereo not given) = no
• CC1=Nc2ccc(Cl)cc2S(=O)(=O)N1 [DIAZOXIDE] = yes
